Kindly supply the reported switch fluorescence ratio values for the records listed here.
Test system: ATP;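 also: ATP exposure 15 min at 22 °C before imaging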
measurement_description: switch fluorescence ratio, 500 uM ATP over buffer (Cy3 cluster intensity, sum of 5 cycles each) (fold (ratio)); higher = stronger signal-on switching upon ATP binding; sequences stand for … in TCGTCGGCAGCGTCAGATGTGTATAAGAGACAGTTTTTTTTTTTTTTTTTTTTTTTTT…TC
condition_context: aptamer strand: ATP DNA aptamer (quencher-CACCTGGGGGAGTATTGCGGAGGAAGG + anchor), 100 nM annealed; ATP concentration: 500 uM
Answers are plain numbers.

GGGAGTTGCT	0.986
GCTTTATGTT	0.994
TGGGTCTTGG	0.984
AGTGTGACAG	0.987
TTTTAATCAG	0.984
AGCACGAAGG	0.992
TCGGAATCTG	1
ATGATATCTA	0.993
ATATATGGTT	0.988
CGAGTTGGCT	1

Here are 7 sequences. What values of switch fluorescence ratio were reported for them?
1. GGTTTTAGGG
2. TAAGGGGTAT
3. GTTTCATTTT
4. AGACGGTATG
5. GGATCGGGCG
6. TATTTGGAAA
7. ACCAGCCTGG

Response:
[0.996, 0.985, 1.01, 1.02, 0.973, 0.991, 1.01]

Would you mind giving switch fluorescence ratio for every sequence in the list below?
1. AGAGGTGACA
2. CAGCTGGGGA
3. CTTTTCTTAA
4. TCAGAGGTAT
5. TAACGTTTTC
6. ATTGCCCGTC
7. TCATGAGATT

Response:
1. 0.999
2. 1.01
3. 0.996
4. 1.02
5. 0.983
6. 0.992
7. 1.02

I'm hoping you can list switch fluorescence ratio for every sequence here, please.
1. ATAATTGGCC
2. ATAAACGGGG

Response:
1. 0.974
2. 0.992
